- STUDY_TARGET: T1, human amylin receptor (amylin 3(a) receptor: human calcitonin receptor with RAMP-3) (human, UniProt P30988 25-474; O60896 24-148, limits assumed)
- T1 sequence (looked up) 1: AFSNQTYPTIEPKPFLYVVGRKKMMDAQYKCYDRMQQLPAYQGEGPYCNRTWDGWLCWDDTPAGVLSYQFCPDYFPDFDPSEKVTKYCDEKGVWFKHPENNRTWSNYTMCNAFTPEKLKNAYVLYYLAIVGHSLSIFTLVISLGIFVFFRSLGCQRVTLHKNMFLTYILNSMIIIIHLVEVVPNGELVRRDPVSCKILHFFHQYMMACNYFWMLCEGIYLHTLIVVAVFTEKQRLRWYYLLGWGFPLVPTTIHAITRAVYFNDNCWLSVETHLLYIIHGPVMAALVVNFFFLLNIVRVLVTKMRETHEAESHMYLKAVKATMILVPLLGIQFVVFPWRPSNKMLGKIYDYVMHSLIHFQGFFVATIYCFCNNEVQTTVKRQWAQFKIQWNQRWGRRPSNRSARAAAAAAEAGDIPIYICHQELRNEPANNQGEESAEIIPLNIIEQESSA
- T1 sequence (looked up) 2: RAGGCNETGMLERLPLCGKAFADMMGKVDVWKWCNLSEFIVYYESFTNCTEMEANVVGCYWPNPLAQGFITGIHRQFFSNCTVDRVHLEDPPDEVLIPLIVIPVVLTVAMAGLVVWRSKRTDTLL
- ASSAY_SUMMARY: cell-based or functional assay
Numbered stars: 1 amine (or outer) side, 2 acyl side, 3 side chain; on linkers, the order of the positions; unused ones are H or OH. Bridge positions count the residues as written; N and C are the ends. Side chains are listed from the residue outwards. Ends that are not written are not given here. * marks the point of attachment. C20 diacid = O=C(O)CCCCCCCCCCCCCCCCCCC(=O)*; γGlu = O=C(O)[C@H](CCC(=O)[*:2])N[*:1]
Kindly supply the reported hAmylin-R funct. EC50 (pM) values for the records listed here.
Respond with the bare value in pM.

-- ask May I ask what hAmylin-R funct. EC50 (pM) has been recorded for K([γGlu-γGlu-C20 diacid])CNTATCATQRLAEFLRHSSNNPGAILSSTNVGPETY-NH2 (disulfide 2-7 (inferred)) ?
-- reply 5170

-- ask May I ask what hAmylin-R funct. EC50 (pM) has been recorded for K([γGlu-C20 diacid])CNTATCATQRLAEFLRHSSPNFGAIPSSTNVGSHTY-NH2 (disulfide 2-7 (inferred)) ?
-- reply 425

-- ask May I ask what hAmylin-R funct. EC50 (pM) has been recorded for K([γGlu-γGlu-C20 diacid])CNTATCATQRLAEFLRHSSPNFGAIPSSTNVGPNTF-NH2 (disulfide 2-7 (inferred)) ?
-- reply 216

-- ask May I ask what hAmylin-R funct. EC50 (pM) has been recorded for K([γGlu-C20 diacid])CNTATCATQRLADFLRHSSPNFGAIPSSTNVGPETY-NH2 (disulfide 2-7 (inferred)) ?
-- reply 288

-- ask May I ask what hAmylin-R funct. EC50 (pM) has been recorded for K([γGlu-γGlu-C20 diacid])CNTATCATQRLAEFLRHSSPNFGAILSSTPVGPETY-NH2 (disulfide 2-7 (inferred)) ?
-- reply 222

-- ask May I ask what hAmylin-R funct. EC50 (pM) has been recorded for K([γGlu-γGlu-C20 diacid])CNTATCATQRLADFLRHSSPNFGAIPSSTNVGPRTY-NH2 (disulfide 2-7 (inferred), also called compound 130) ?
-- reply 162

-- ask May I ask what hAmylin-R funct. EC50 (pM) has been recorded for K([γGlu-γGlu-C20 diacid])CNTATCATQRLAEFLRHSSPNFGAIPSSTNVGPHTY-NH2 (disulfide 2-7 (inferred)) ?
-- reply 172

-- ask May I ask what hAmylin-R funct. EC50 (pM) has been recorded for K([γGlu-γGlu-C20 diacid])CNTATCATQRLANFLRHSSPNFGAIPSSTPVGPRTY-NH2 (disulfide 2-7 (inferred)) ?
-- reply 333

-- ask May I ask what hAmylin-R funct. EC50 (pM) has been recorded for K([γGlu-C20 diacid])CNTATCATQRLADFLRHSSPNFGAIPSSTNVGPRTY-NH2 (disulfide 2-7 (inferred)) ?
-- reply 146
